assay: qHTS assay to identify small molecule antagonists of the constitutive androstane receptor (CAR) signaling pathway - cell viability counter screen (AID 1224837); details: HepG2-CYP2B6-hCAR viability, CellTiter-Fluor, 23 h, co-treated with 50 nM CITCO; series mostly up to 92.4 µM; note: nearly all actives have a fitted effect of over 45% in size
Records with an inconclusive call do not appear. Activity calls are given as the source filed them. Calls come from the whole dose curve; as a rule, active = well fitted cell-killing curve with a large enough effect in the repeat runs; inconclusive = weak or mixed curves, or effect the other way; inactive = flat fitted curve, though single readings scatter.
Respond with a class label; see True = active, False = inactive

Please share the test call associated with CC1(C)C(C=C(Cl)Cl)C1C(=O)OC(C#N)c1ccc(F)c(Oc2ccccc2)c1 (centres undefined) .
False

Please share the test call associated with CCCCCCC[CH2][Sn]([Cl])([Cl])[CH2]CCCCCCC .
False

Please share the test call associated with O=C(NC(=O)c1c(F)cccc1F)Nc1ccc(Oc2ccc(C(F)(F)F)cc2Cl)cc1F .
False

Please share the test call associated with CNC(=O)Oc1cc(C)cc(C(C)C)c1 .
False

Please share the test call associated with CNC(=O)/C=C(\C)OP(=O)(OC)OC .
False

Please share the test call associated with Nc1c(Cl)c(Cl)c(Cl)c(Cl)c1Cl .
False

Please share the test call associated with O=[N+]([O-])c1ccccc1-c1ccccc1 .
False

Please share the test call associated with CC(Cc1ccc(OCC(=O)O)cc1)NCC(O)c1csc(C(F)(F)F)n1 (centres undefined) .
False

Please share the test call associated with [O-][Cl+3]([O-])([O-])O .
False

Please share the test call associated with CC1CCCC1 .
False

Please share the test call associated with CC[C@H](C)[C@H]1O[C@]2(C=C[C@@H]1C)C[C@@H]1C[C@@H](C/C=C(\C)[C@@H](O[C@H]3C[C@H](OC)[C@@H](O[C@H]4C[C@H](OC)[C@@H](NC)[C@H](C)O4)[C@H](C)O3)[C@@H](C)/C=C/C=C3\CO[C@@H]4[C@H](O)C(C)=C[C@@H](C(=O)O1)[C@]34O)O2 .
True

Please share the test call associated with CC(Cc1ccc(O)cc1)NCC(O)c1cc(O)cc(O)c1 (centres undefined) .
False

Please share the test call associated with O=C(Cl)c1ccccc1F .
False

Please share the test call associated with BrCC(Br)(Br)Br .
False

Please share the test call associated with C[C@H]1[C@H](c2ccc(Cl)cc2)SC(=O)N1C(=O)NC1CCCCC1 .
False

Please share the test call associated with CC[C@]1(O)CC[C@H]2[C@@H]3CCC4=CCCC[C@@H]4[C@H]3CC[C@@]21C .
False

Please share the test call associated with Oc1ccc([C@H]2CNCc3c2ccc(O)c3O)cc1O .
False

Please share the test call associated with CCN(CC)CCN1C(=O)CN=C(c2ccccc2F)c2cc(Cl)ccc21 .
False

Please share the test call associated with O=c1[nH]c2cc(Cl)ccc2n1C1CCNCC1 .
False

Please share the test call associated with O=[N+]([O-])c1cccc2cccc([N+](=O)[O-])c12 .
False

Please share the test call associated with CCCCCON=O .
False

Please share the test call associated with O=[N+]([O-])c1ccc(Cl)c(Cl)c1Cl .
False

Please share the test call associated with Clc1ccc(C(Cl)(Cl)Cl)cc1Cl .
False

Please share the test call associated with CC[N+]1(CC)CCC(OC(=O)C(O)(c2ccccc2)c2ccccc2)C1 (centres undefined) .
False
